Target: T1, O13-AA
T1 chain: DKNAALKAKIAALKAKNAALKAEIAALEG
Test: two-hybrid library CCmax;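 further: natural log of median RNA to DNA barcode read ratio; higher means stronger binding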
Settings: mean of both orientations
measurement_label: interaction score

Let me know recorded interaction score for ASIRRLEQEVNQERSRMAYLQTLLAKIEQ [4H_BCR] , thanks.
-1.72

Let me know recorded interaction score for DENAALEAENAALEAKIAALKAEIAALEG [4H1193-AA] , thanks.
-0.387

Let me know recorded interaction score for DKIAALKAKIAALKAEIAALEAKNAALKG [4H2888-AA] , thanks.
-0.966

Let me know recorded interaction score for DEIAALEAKIAALKAKNAALKAKNAALKG [4H384-AA] , thanks.
-1.52

Let me know recorded interaction score for DEIAALEAKNAALKAEIAALEAENAALEG [4H451-AA] , thanks.
-1.74

Let me know recorded interaction score for DEIAALEAENAALEAEIAALEAKIAALKG [4H134-AA] , thanks.
2.02

Let me know recorded interaction score for DKNAALKAEIAALEAEIAALEAENAALEG [4H3587-AA] , thanks.
0.274
